Please respond with reported IC50 for every item in the list.
# targetOrSystem: Tyrosine-protein phosphatase non-receptor type 1 (Homo sapiens)
# Sequence (P18031 whole entry): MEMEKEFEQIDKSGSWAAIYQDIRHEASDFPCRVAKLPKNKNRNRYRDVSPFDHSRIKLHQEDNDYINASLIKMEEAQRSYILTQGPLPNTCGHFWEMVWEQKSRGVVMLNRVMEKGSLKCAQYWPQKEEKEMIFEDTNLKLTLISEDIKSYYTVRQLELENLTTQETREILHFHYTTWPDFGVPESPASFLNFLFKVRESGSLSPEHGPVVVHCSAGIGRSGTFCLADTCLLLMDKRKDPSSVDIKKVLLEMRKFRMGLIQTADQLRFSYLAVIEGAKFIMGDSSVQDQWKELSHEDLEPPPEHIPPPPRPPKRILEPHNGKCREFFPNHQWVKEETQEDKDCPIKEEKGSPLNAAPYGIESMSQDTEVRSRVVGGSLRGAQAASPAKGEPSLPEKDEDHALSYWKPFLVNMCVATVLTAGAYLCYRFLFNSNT
# assayExplanation: Inhibition of recombinant human PTP1B expressed in Escherichia coli using pNPP as substrate preincubated for 15 mins followed by substrate addition and measured after 60 mins
// units = nM; emit number, no label

# compound `COc1cc(O)c(Cl)c(C)c1-c1cc(O)c(Br)c2cc3c(c(O)c12)C(=O)c1c(O)cc(O)cc1C3(C)C` ; its IC50 = 2620

# compound `COc1cc(O)c(Cl)c(C)c1-c1cc(O)cc2cc3c(c(O)c12)C(=O)c1c(O)c(Cl)c(O)c(Cl)c1C3(C)C` ; its IC50 = 2110

# compound `COc1cc(O)c(Cl)c(C)c1-c1cc(O)c(Cl)c2cc3c(c(O)c12)C(=O)c1c(O)c(Cl)c(O)c(Cl)c1C3(C)C` ; its IC50 = 2810

# compound `COc1cc(O)cc(C)c1-c1cc(O)cc2cc3c(c(O)c12)C(=O)c1c(cc(O)c(Cl)c1O)C3(C)C` ; its IC50 = 7690

# compound `COc1cc(O)c(Cl)c(C)c1-c1cc(O)cc2cc3c(c(O)c12)C(=O)c1c(O)cc(O)cc1C3(C)C` ; its IC50 = 3380

# compound `COc1cc(O)c(Cl)c(C)c1-c1cc(O)cc2cc3c(c(O)c12)C(=O)c1c(cc(O)c(Cl)c1O)C3(C)C` ; its IC50 = 2700

# compound `COc1c(Cl)c(O)c(Cl)c(C)c1-c1cc(O)c(Cl)c2cc3c(c(O)c12)C(=O)c1c(O)c(Cl)c(O)c(Cl)c1C3(C)C` ; its IC50 = 340

# compound `COc1cc(O)c(Cl)c(C)c1-c1cc(O)c(Cl)c2cc3c(c(O)c12)C(=O)c1c(cc(O)c(Cl)c1O)C3(C)C` ; its IC50 = 8270
